Cited source for all entries: paper PMC2880318

Reported pIC50 values for a set of compounds
biological target: purified HLA-DRB1*0101 (Homo sapiens, UniProt P01903+P01911, A100R/D57E/F55L/F60I/F76Y/I96L/L162R/M171V/P40L/Q125E/R42F/V115G/Y59C); experiment: biochemical
Where a SMILES comes first, the peptide text is derived from it.
API: returns pIC50 as number; meaning -log10 of concentration in mol/L.

Here are 3 compounds together with their reported answers.
CC(C)C[C@H](NC(=O)[C@H](Cc1ccccc1)NC(=O)[C@H](CC(C)C)NC(=O)[C@@H](NC(=O)[C@@H](NC(=O)[C@@H](NC(=O)[C@@H](N)Cc1ccccc1)[C@@H](C)O)[C@@H](C)O)[C@@H](C)O)C(=O)N[C@@H](Cc1c[nH]cn1)C(=O)N[C@@H](CC(C)C)C(=O)N[C@H](C(=O)NCC(=O)N[C@@H](Cc1ccccc1)C(=O)N1CCC[C@H]1C(=O)N[C@H](C(=O)N[C@@H](Cc1c[nH]cn1)C(=O)O)[C@@H](C)O)C(C)C [SABV GPC436-450] (H-FTTTLFLHLVGFPTH-OH): 9.04
CC[C@H](C)[C@H](NC(=O)[C@H](CC(C)C)NC(=O)[C@H](Cc1ccc(O)cc1)NC(=O)[C@@H](N)CC(=O)O)C(=O)N[C@@H](CC(C)C)C(=O)N[C@@H](CCCCN)C(=O)N[C@@H](CC(N)=O)C(=O)N[C@@H](CC(C)C)C(=O)N[C@H](C(=O)NCC(=O)N[C@@H](CC(C)C)C(=O)N[C@H](C(=O)N[C@@H](CO)C(=O)N[C@@H](C)C(=O)NCC(=O)O)C(C)C)[C@@H](C)O: 9.68
CC[C@H](C)[C@H](NC(=O)[C@H](CC(C)C)NC(=O)CNC(=O)[C@H](CCC(=O)O)NC(=O)[C@@H]1CCCN1C(=O)[C@H](CC(N)=O)NC(=O)[C@@H](NC(=O)[C@H](CCCCN)NC(=O)[C@H](CCC(N)=O)NC(=O)[C@H](Cc1ccccc1)NC(=O)[C@H](CC(N)=O)NC(=O)[C@@H](N)CCCNC(=N)N)C(C)C)C(=O)N[C@@H](CCCCN)C(=O)N[C@@H](CCC(=O)O)C(=O)N[C@@H](Cc1ccccc1)C(=O)O [LCMV L256-270] (H-RNFQKVNPEGLIKEF-OH): 8.25

Query string: Quickly give me recorded pIC50 for CC[C@H](C)[C@H](NC(=O)[C@H](CC(=O)O)NC(=O)[C@H](CC(N)=O)NC(=O)[C@H](Cc1ccccc1)NC(=O)[C@@H](NC(=O)[C@H](CCCCN)NC(=O)[C@H](CCCNC(=N)N)NC(=O)[C@H](C)NC(=O)[C@H](CS)NC(=O)[C@H](CC(N)=O)NC(=O)[C@H](CCCNC(=N)N)NC(=O)[C@@H](NC(=O)[C@H](Cc1ccccc1)NC(=O)[C@H](CO)NC(=O)[C@@H](N)[C@@H](C)O)[C@@H](C)CC)C(C)C)C(=O)O
Result string: 9.96

Query string: Quickly give me recorded pIC50 for CC[C@H](C)[C@H](NC(=O)[C@@H](N)Cc1ccccc1)C(=O)N[C@H](C(=O)N[C@@H](Cc1ccccc1)C(=O)N[C@@H](CC(C)C)C(=O)N[C@@H](CC(C)C)C(=O)N[C@@H](CC(C)C)C(=O)N[C@@H](C)C(=O)NCC(=O)N[C@@H](CCCNC(=N)N)C(=O)N[C@@H](CO)C(=O)N[C@@H](CS)C(=O)N[C@@H](CO)C(=O)N[C@@H](Cc1ccc(O)cc1)C(=O)N[C@@H](CCCCN)C(=O)O)C(C)C [WWAV GPC46-60] (H-FIVFLLLAGRSCSYK-OH)
Result string: 8.92

====

Reported IC50 values for a set of compounds
target: purified HLA-DRB1*0101 (Homo sapiens, UniProt P01903+P01911, A100R/D57E/F55L/F60I/F76Y/I96L/L162R/M171V/P40L/Q125E/R42F/V115G/Y59C); assay: biochemical
Where a SMILES comes first, the peptide text is derived from it.
Your answer is read as nM, so omit the unit and give the number.

Here are 8 compounds together with their reported answers.
CC[C@H](C)[C@H](NC(=O)[C@H](Cc1c[nH]cn1)NC(=O)[C@H](CCCNC(=N)N)NC(=O)[C@H](Cc1c[nH]cn1)NC(=O)[C@@H](NC(=O)[C@@H]1CCCN1C(=O)[C@H](Cc1ccccc1)NC(=O)CNC(=O)[C@@H](NC(=O)[C@H](CC(C)C)NC(=O)[C@H](Cc1c[nH]cn1)NC(=O)[C@H](CC(C)C)NC(=O)[C@@H](N)Cc1ccccc1)C(C)C)[C@@H](C)O)C(=O)N[C@@H](CCCNC(=N)N)C(=O)NCC(=O)O [SABV GPC441-455] (H-FLHLVGFPTHRHIRG-OH): 0.09
CC[C@H](C)[C@H](NC(=O)[C@H](Cc1c[nH]c2ccccc12)NC(=O)[C@H](CC(=O)O)NC(=O)[C@H](Cc1ccccc1)NC(=O)[C@H](CCC(=O)O)NC(=O)[C@@H]1CCCN1C(=O)[C@H](CO)NC(=O)CNC(=O)[C@@H](N)CCCCN)C(=O)N[C@@H](CC(C)C)C(=O)NCC(=O)N[C@@H](Cc1c[nH]c2ccccc12)C(=O)N[C@H](C(=O)N[C@H](C(=O)N[C@@H](CCCCN)C(=O)O)[C@@H](C)CC)[C@@H](C)O [GTOV GPC131-145] (H-KGSPEFDWILGWTIK-OH): 1.7
CC[C@H](C)[C@H](NC(=O)[C@@H]1CCCN1C(=O)[C@H](CO)NC(=O)[C@@H]1CCCN1)C(=O)NCC(=O)N[C@@H](Cc1ccc(O)cc1)C(=O)N[C@@H](CC(C)C)C(=O)NCC(=O)N[C@@H](CC(C)C)C(=O)N[C@@H](CC(C)C)C(=O)N[C@@H](CO)C(=O)N[C@@H](CCC(N)=O)C(=O)N[C@@H](CCCNC(=N)N)C(=O)N[C@H](C(=O)N[C@@H](CCCNC(=N)N)C(=O)O)[C@@H](C)O [LASV GPC236-250]: 0.14
CC[C@H](C)[C@H](N)C(=O)N1CCC[C@H]1C(=O)N[C@H](C(=O)N[C@@H](CCC(N)=O)C(=O)N[C@@H](CC(C)C)C(=O)N[C@@H](CC(C)C)C(=O)N1CCC[C@H]1C(=O)N[C@@H](CC(N)=O)C(=O)N[C@H](C(=O)N[C@@H](CC(C)C)C(=O)N[C@H](C(=O)N[C@@H](Cc1ccccc1)C(=O)N[C@@H](CCC(N)=O)C(=O)N[C@@H](C)C(=O)N[C@@H](CCCCN)C(=O)O)C(C)C)[C@@H](C)O)[C@@H](C)CC [GTOV NP541-555] (H-IPIQLLPNTLVFQAK-OH): 0.25
CC[C@H](C)[C@H](NC(=O)[C@H](CC(C)C)NC(=O)[C@H](Cc1ccccc1)NC(=O)[C@@H](NC(=O)[C@H](CC(N)=O)NC(=O)[C@@H](NC(=O)CNC(=O)CNC(=O)[C@H](CCCCN)NC(=O)[C@H](CCSC)NC(=O)[C@H](Cc1ccc(O)cc1)NC(=O)[C@H](Cc1ccc(O)cc1)NC(=O)[C@H](Cc1ccccc1)NC(=O)[C@H](CO)NC(=O)[C@@H](N)CC(N)=O)C(C)C)[C@@H](C)O)C(=O)O [MACV GPC96-110]: 0.21
CC(C)C[C@H](NC(=O)[C@H](CO)NC(=O)[C@H](CCCNC(=N)N)NC(=O)[C@H](CCC(=O)O)NC(=O)[C@H](Cc1ccccc1)NC(=O)[C@H](CC(N)=O)NC(=O)[C@H](CC(C)C)NC(=O)[C@H](Cc1c[nH]cn1)NC(=O)[C@@H](NC(=O)[C@H](CCCCN)NC(=O)[C@@H](N)CO)[C@@H](C)O)C(=O)N[C@@H](CCCCN)C(=O)N[C@@H](C)C(=O)N[C@@H](Cc1ccccc1)C(=O)N[C@@H](Cc1ccccc1)C(=O)O [MACV GPC251-265]: 1.7
CC[C@H](C)[C@H](NC(=O)[C@H](CC(=O)O)NC(=O)[C@H](CC(C)C)NC(=O)[C@@H](NC(=O)[C@@H](N)CCCNC(=N)N)C(C)C)C(=O)N[C@@H](CC(C)C)C(=O)N[C@H](C(=O)N[C@@H](C)C(=O)N[C@@H](CCCNC(=N)N)C(=O)N[C@@H](CCCNC(=N)N)C(=O)N[C@@H](CC(C)C)C(=O)N[C@@H](CC(C)C)C(=O)N[C@@H](CC(C)C)C(=O)N[C@@H](CCCCN)C(=O)N[C@@H](CCCCN)C(=O)O)C(C)C [GTOV L391-405] (H-RVLDILVARRLLLKK-OH): 0.19
CC(C)C[C@H](NC(=O)[C@H](CCC(=O)O)NC(=O)[C@H](CCCNC(=N)N)NC(=O)[C@H](CCCNC(=N)N)NC(=O)[C@H](CC(C)C)NC(=O)[C@H](C)NC(=O)[C@H](CCC(N)=O)NC(=O)[C@@H](NC(=O)[C@H](Cc1c[nH]c2ccccc12)NC(=O)[C@H](CCC(N)=O)NC(=O)[C@H](Cc1ccccc1)NC(=O)[C@H](CO)NC(=O)[C@H](CCCCN)NC(=O)[C@@H](NC(=O)[C@@H](N)CCC(=O)O)C(C)C)[C@@H](C)O)C(=O)O [LCMV NP6-20]: 49

Would you kindly look at the next entry?
Query string: Quickly give me recorded IC50 for CC(C)C[C@H](NC(=O)[C@H](C)NC(=O)[C@H](CC(C)C)NC(=O)[C@H](Cc1ccccc1)NC(=O)[C@@H](NC(=O)[C@H](Cc1ccccc1)NC(=O)[C@@H](N)Cc1ccccc1)C(C)C)C(=O)N[C@@H](C)C(=O)NCC(=O)N[C@@H](CCCNC(=N)N)C(=O)N[C@@H](CO)C(=O)N[C@@H](CS)C(=O)N[C@H](C(=O)N[C@@H](CCC(=O)O)C(=O)N[C@@H](CCC(=O)O)C(=O)O)[C@@H](C)O [JUNV GPC46-60]
Result string: 0.23
